System: P388 leukemia ip, CD2F1 mice, survival T/C
Test Method Notes: NCI In Vivo Anticancer Drug Screen. Data for tumor model P388 Leukemia (intraperitoneal) in CD2F1 (CDF1) mice
Settings: endpoint: median survival time; dose: 50.0 mg/kg/injection; schedule: Q01DX009 (ip); vehicle: other; higher = longer survival
Inconclusive results and toxic doses are left out.
Measured Endpoint: T/C

Below: 6 compounds and their reported T/C.
COC(=O)C(Br)CN1C(=O)c2ccccc2C1=O (stereo not drawn): 101 % of control
O=C(CNNC(=O)OCc1ccccc1)OCc1ccccc1: 93 % of control
CCOC(=O)C1CCc2ccc(OC)c(OC)c2C1 (stereo not drawn): 105 % of control
CCOC(=O)/C=C(/Nc1cccc(OC)c1)c1ccccc1: 103 % of control
COc1ccc2ccc(CO)cc2c1OC: 92 % of control
CC1(C)C=C(C(Br)c2ccccc2)C(=O)c2ccccc21 (stereo not drawn): 118 % of control

In plain terms, `COc1cc2nnn(-c3ccncc3)c2cc1OC` has a documented T/C of 93 % of control

In plain terms, `O=C1c2ccccc2C(=O)N1CC[P+](Cc1ccccc1)(Cc1ccccc1)Cc1ccccc1` has a documented T/C of 105 % of control

###

System: P388 leukemia ip, CD2F1 mice, survival T/C
Test Method Notes: NCI In Vivo Anticancer Drug Screen. Data for tumor model P388 Leukemia (intraperitoneal) in CD2F1 (CDF1) mice
Settings: endpoint: median survival time; dose: 200.0 mg/kg/injection; schedule: Q01DX005 (ip); vehicle: saline with Tween-80
Inconclusive results and toxic doses are left out. How the source made its calls: active means survival T/C of 150% or more; inactive means T/C below 125% in these data.
Choose the fitting class; nothing outside YES (active), NO (inactive) is accepted.

C/C=C/C(=O)Oc1ccccc1/C=C/C(=O)CCCCCC: NO
C=CCCc1c(OC)cccc1C1=NC(C)(C)CO1: NO
COC(=O)C1=CN(C)C(c2ccccc2)C=C1 (configuration not stated): NO
CC(C)(C)OC(=O)NC(COCc1ccccc1)C(=O)O (configuration not stated): NO
CCCCCCCN(CCCCCCC)CC(O)c1ccc2cc(Cl)c3ccccc3c2c1 (configuration not stated): NO

Would you kindly look at the next entry?
Test call for this molecule, please: COC1CCC(NC(C)=O)C(C2CCCCC2)C1 (configuration not stated)
NO

###

Tested on: P388 leukemia ip, CD2F1 mice, survival T/C
Test Method Notes: NCI In Vivo Anticancer Drug Screen. Data for tumor model P388 Leukemia (intraperitoneal) in CD2F1 (CDF1) mice
Settings: endpoint: median survival time; dose: 200.0 mg/kg/injection; schedule: Q01DX009 (ip); vehicle: saline; higher = longer survival
Toxic doses and inconclusive results are not listed.
Below: a set of entries, each annotated with reported T/C.

In plain terms, `CC(=N\O)/C(C)=N/Nc1ccccc1Cl` has a documented T/C of 89 % of control

In plain terms, `c1ccc2c(c1)[nH]c1nc3ncncc3nc12` has a documented T/C of 100 % of control

In plain terms, O=P(O)(O)OC1C(OP(=O)(O)O)C(OP(=O)(O)O)C(OP(=O)(O)O)C(OP(=O)(O)O)C1OP(=O)(O)O (configuration not stated) has a documented T/C of 102 % of control

In plain terms, CC(=O)C1CCC(=O)N1C(C)=O (configuration not stated) has a documented T/C of 114 % of control

In plain terms, `C/C(=N\O)c1ccc2ccccc2c1` has a documented T/C of 102 % of control

In plain terms, O=C1c2ccccc2COC1c1ccccc1 (configuration not stated) has a documented T/C of 118 % of control

###

Below: a set of entries, each annotated with reported T/C.
Test system: P388 leukemia ip, CD2F1 mice, survival T/C
Test Method Notes: NCI In Vivo Anticancer Drug Screen. Data for tumor model P388 Leukemia (intraperitoneal) in CD2F1 (CDF1) mice
Settings: endpoint: median survival time; dose: 25.0 mg/kg/injection; schedule: Q01DX009 (ip); vehicle: water; higher = longer survival
Toxic doses and inconclusive results are not listed.

Below: 3 molecules and their reported T/C.
COc1ccc(CCNc2ccc(OC)c(OC)c2)cc1OC: 98 % of control
Cc1cccnc1Br: 96 % of control
O=[N+]([O-])c1nccn1CCCO: 97 % of control

Now let's try a different one.
In plain terms, `Cc1ccc(S(=O)(=O)N/N=C/c2ccc(O)c(S(=O)(=O)O)c2)cc1` has a documented T/C of 101 % of control

###

System: P388 leukemia ip, CD2F1 mice, survival T/C
Test Method Notes: NCI In Vivo Anticancer Drug Screen. Data for tumor model P388 Leukemia (intraperitoneal) in CD2F1 (CDF1) mice
Settings: endpoint: median survival time; dose: 100.0 mg/kg/injection; schedule: Q04DX003 (ip); vehicle: saline with Tween-80; higher = longer survival
Inconclusive results and toxic doses are left out.
Below: a set of entries, each annotated with reported T/C.

Below: 9 compounds and their reported T/C.
O=C1OC2(CCCCC2)OC(=O)C1=Cc1ccc([N+](=O)[O-])s1: 114 % of control
O=[N+]([O-])c1cc2[nH]cnc2c([N+](=O)[O-])c1Nc1ccccc1: 102 % of control
COC1=CC2C3Cc4c(-c5cc(OC)c(O)c6c5CC5C7C=C(OC)C(=O)CC67CCN5C)cc(OC)c(O)c4C2(CCN3C)CC1=O (stereo not given): 104 % of control
COC(=O)CCN(CCC(=O)OC)Cc1ccccc1: 100 % of control
CCCCOC(=O)C(C)OC(=O)Nc1cccc(Cl)c1 (stereo not given): 90 % of control
Cc1ccc(NC(=O)Nc2ccccc2C(N)=O)cc1: 95 % of control
CN(C)N(P(c1ccccc1)c1ccccc1)P(c1ccccc1)c1ccccc1: 93 % of control
CCCC(C)C/C(C)=C/C(C)(C)C(CC(=O)N1CCOCC1)C(=O)O (stereo not given): 100 % of control
CC(C)(C)C(=O)CC(=O)C(C)(C)C.[Cu]: 94 % of control

In plain terms, `O=C(c1ccc(Cl)cc1)n1c(Cl)c(/C=N\Nc2ccccc2[N+](=O)[O-])c2ccccc21` has a documented T/C of 93 % of control

###

System: P388 leukemia ip, CD2F1 mice, survival T/C
Test Method Notes: NCI In Vivo Anticancer Drug Screen. Data for tumor model P388 Leukemia (intraperitoneal) in CD2F1 (CDF1) mice
Settings: endpoint: median survival time; dose: 100.0 mg/kg/injection; schedule: Q04DX003 (ip); vehicle: saline; higher = longer survival
Inconclusive results and toxic doses are left out.
Measured Endpoint: T/C

Below: 5 compounds and their reported T/C.
CCCCCCCNN=NCC(C)C(C)CC (stereo not given): 95 % of control
CCOC(=O)C[CH2][Sn]([Cl])([Cl])[Cl]: 100 % of control
CSC(SC)=C(C#N)C#N: 108 % of control
CS(=O)(=O)Oc1ccc2c(c1)CCC2: 101 % of control
Cn1nnc(C(=O)O)n1: 103 % of control

Tested system P388 leukemia ip, CD2F1 mice, survival T/C; T/C recorded for CC(C)C(O)C1CCOS1(=O)=O (stereo not given) was 95 % of control

Tested system P388 leukemia ip, CD2F1 mice, survival T/C; T/C recorded for `C[C@]12CCC[C@H](O)[C@H]1O2` was 104 % of control

Tested system P388 leukemia ip, CD2F1 mice, survival T/C; T/C recorded for `C[N+]1=CN(S(=O)(=O)C2C=CC=CC=C2)C(C)(C)C1(C)C` was 103 % of control

Tested system P388 leukemia ip, CD2F1 mice, survival T/C; T/C recorded for `O=P(c1ccccc1)(c1ccccc1)c1ccccc1.[Cl][Sn]([c]1ccccc1)([c]1ccccc1)[c]1ccccc1` was 100 % of control

Tested system P388 leukemia ip, CD2F1 mice, survival T/C; T/C recorded for `O=CC1C(=O)NC(=O)NC1=O` was 114 % of control

Tested system P388 leukemia ip, CD2F1 mice, survival T/C; T/C recorded for `[BH]n1cccn1.[CH3][Sn]([CH3])[N]=C=S` was 117 % of control

###

Test system: P388 leukemia ip, CD2F1 mice, survival T/C
Test Method Notes: NCI In Vivo Anticancer Drug Screen. Data for tumor model P388 Leukemia (intraperitoneal) in CD2F1 (CDF1) mice
Settings: endpoint: median survival time; dose: 25.0 mg/kg/injection; schedule: Q04DX002 (ip); vehicle: saline with Tween-80; higher = longer survival
Inconclusive results and toxic doses are left out.
Below: a set of entries, each annotated with reported T/C.

Tested system P388 leukemia ip, CD2F1 mice, survival T/C; T/C recorded for `CSC(=S)/N=c1\ccc(C)cn1C` was 100 % of control

Tested system P388 leukemia ip, CD2F1 mice, survival T/C; T/C recorded for `CSc1sc(C#N)c(N)c1N=Cc1ccccc1` was 101 % of control

Tested system P388 leukemia ip, CD2F1 mice, survival T/C; T/C recorded for `CSC(=S)/N=c1\ccccn1C` was 102 % of control

Tested system P388 leukemia ip, CD2F1 mice, survival T/C; T/C recorded for `CC(=O)N(O)c1ccc(Cl)cc1` was 100 % of control

Tested system P388 leukemia ip, CD2F1 mice, survival T/C; T/C recorded for `CN=C(N)N/N=C(\c1ccccc1)c1cc(Cl)c(O)c(Cl)c1` was 101 % of control

Tested system P388 leukemia ip, CD2F1 mice, survival T/C; T/C recorded for `CN1CCc2c(n(C)c3ccccc23)C1=O` was 102 % of control
